- Test system: HCT-116
- ASSAY OVERVIEW: Antiproliferative activity against human HCT-116 assessed as reduction in cell viability measured after 48 hrs by MTT assay
- Assay type: functional, cell-based
- CONDITION DETAILS: HCT-116, 48 h
pIC50: −log10 of the molar value.
QUANTITY MEASURED: pIC50

1) COc1cc(-c2nnc3c(OC4CC4)cc(-c4ccc5c(ccn5C)c4)cn23)cc(OC)c1OC
6.87
2) COc1cc(-c2nnc3c(OC(C)C)cc(-c4ccc5[nH]ccc5c4)cn23)cc(OC)c1OC
6.03
3) COc1cc2c(c(OC)c1OC)-c1ccc(OC)c(=O)cc1[C@@H](NC(C)=O)CC2 [COLCHICINE]
7.08

(a) COc1cc(-c2nnc3c(OC4CCC4)cc(-c4ccc5c(ccn5C)c4)cn23)cc(OC)c1OC
(b) CCOc1cc(-c2ccc3c(c2)c2ccccc2n3C)cn2c(-c3cc(OC)c(OC)c(OC)c3)nnc12
(c) CCOc1cc(-c2ccc3cc[nH]c3c2)cn2c(-c3cc(OC)c(OC)c(OC)c3)nnc12
Task item: Arrange the 3 compounds from largest to smallest pIC50. Dear reader, please state the labels in the requested order.
Reply: b, a, c

###

- System: HCT-116
- ASSAY OVERVIEW: Antiproliferative activity against human HCT-116 assessed as reduction in cell viability measured after 48 hrs by MTT assay
- Assay type: functional, cell-based
- CONDITION DETAILS: HCT-116, 48 h
pIC50: −log10 of the molar value.
QUANTITY MEASURED: pIC50

(1) COc1cc(-c2nnc3c(OC4CC4)cc(-c4ccc5[nH]ccc5c4)cn23)cc(OC)c1OC
(2) COc1cc(-c2nnc3c(OC)cc(-c4ccc5c(ccn5C)c4)cn23)cc(OC)c1OC
(3) COc1cc(-c2nnc3c(OC4COC4)cc(-c4ccc5c(ccn5C)c4)cn23)cc(OC)c1OC
(4) COc1cc(-c2nnc3c(OC)cc(-c4ccc5[nH]ccc5c4)cn23)cc(OC)c1OC
Task item: List items by pIC50 in falling order. Dear reader, please state the labels in the requested order.
Reply: 2, 4, 1, 3

###

- ASSAY OVERVIEW: Metabolic stability in human liver microsomes assessed as parent compound remaining after 30 mins
- Format: ADME, Microsome
- CONDITION DETAILS: read-out: Stability
A collection of molecules and their measured remaining at 0.5 h
# output: bare number, implied unit %

Task item: Recorded remaining at 0.5 h of COc1ccc(/C=C/C=C\c2cc(OC)c(OC)c(OC)c2)cc1O , please.
Reply: 26.3

Task item: What do you have for COc1cc(-c2nnc3c(OC)cc(-c4ccc5c(ccn5C)c4)cn23)cc(OC)c1OC ?
Reply: 55.5

Task item: What do you have for COc1ccc(/C=C\c2cc(OC)c(OC)c(OC)c2)cc1O ?
Reply: 54.1

###

- ASSAY OVERVIEW: Metabolic stability in human liver microsomes assessed as parent compound remaining after 15 mins
- Format: ADME, Microsome
- CONDITION DETAILS: read-out: Stability
A collection of molecules and their measured remaining at 0.25 h
# output: bare number, implied unit %

1. COc1ccc(/C=C/C=C\c2cc(OC)c(OC)c(OC)c2)cc1O
47.7
2. COc1ccc(/C=C\c2cc(OC)c(OC)c(OC)c2)cc1O
75.6

Task item: Recorded remaining at 0.25 h of COc1cc(-c2nnc3c(OC)cc(-c4ccc5c(ccn5C)c4)cn23)cc(OC)c1OC , please.
Reply: 75.9
